- experimental.target: HSA (Homo sapiens, UniProt P02768)
- Sequence (P02768 25-609): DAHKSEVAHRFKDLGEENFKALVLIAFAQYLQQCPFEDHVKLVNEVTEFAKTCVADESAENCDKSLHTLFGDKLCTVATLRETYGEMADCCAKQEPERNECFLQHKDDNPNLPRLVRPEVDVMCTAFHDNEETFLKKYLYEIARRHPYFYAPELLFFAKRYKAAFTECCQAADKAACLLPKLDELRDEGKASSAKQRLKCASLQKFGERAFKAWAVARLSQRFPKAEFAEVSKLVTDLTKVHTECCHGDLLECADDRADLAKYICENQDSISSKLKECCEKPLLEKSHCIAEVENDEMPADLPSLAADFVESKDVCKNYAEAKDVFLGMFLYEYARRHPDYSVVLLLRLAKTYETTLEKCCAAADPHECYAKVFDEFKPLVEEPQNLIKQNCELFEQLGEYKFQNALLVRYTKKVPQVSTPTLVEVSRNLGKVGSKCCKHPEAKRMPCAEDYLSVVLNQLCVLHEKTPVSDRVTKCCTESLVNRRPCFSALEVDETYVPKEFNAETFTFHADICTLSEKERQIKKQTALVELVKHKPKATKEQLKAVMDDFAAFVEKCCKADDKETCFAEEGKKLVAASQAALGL
- protocol: in vitro
- Format: in vitro ADME
- conditions.used: HSA (human serum albumin), concentration 3.0 μM, read-out: % bound to protein (converted)
test.readout: fraction unbound at 3 μM
Format: numeric value only, no unit, no commentary.

compound: CC(=O)O[C@H]1C(=O)[C@@]2(C)[C@H]([C@H](OC(=O)c3ccccc3)[C@]3(O)C[C@H](OC(=O)[C@H](OC(=O)CCCCCCCCCCCCCCCCC(=O)O)[C@@H](NC(=O)c4ccccc4)c4ccccc4)C(C)=C1C3(C)C)[C@]1(OC(C)=O)CO[C@@H]1C[C@@H]2O [PTX-FA18, Paclitaxel-C18 Diacid Conjugate]
fraction unbound at 3 μM: 0.003

Now for a further compound.
What does the data say about its fraction unbound at 3 μM? Entry: O=C(O)CCCCCCCCCCCCCCCCC(=O)O [C18 Diacid, octadecanedioic acid]
0.002
